The entries that follow carry IC50 values tested on UniProtKB P15145, drawn from several published reports.
Sequence (P15145 whole entry): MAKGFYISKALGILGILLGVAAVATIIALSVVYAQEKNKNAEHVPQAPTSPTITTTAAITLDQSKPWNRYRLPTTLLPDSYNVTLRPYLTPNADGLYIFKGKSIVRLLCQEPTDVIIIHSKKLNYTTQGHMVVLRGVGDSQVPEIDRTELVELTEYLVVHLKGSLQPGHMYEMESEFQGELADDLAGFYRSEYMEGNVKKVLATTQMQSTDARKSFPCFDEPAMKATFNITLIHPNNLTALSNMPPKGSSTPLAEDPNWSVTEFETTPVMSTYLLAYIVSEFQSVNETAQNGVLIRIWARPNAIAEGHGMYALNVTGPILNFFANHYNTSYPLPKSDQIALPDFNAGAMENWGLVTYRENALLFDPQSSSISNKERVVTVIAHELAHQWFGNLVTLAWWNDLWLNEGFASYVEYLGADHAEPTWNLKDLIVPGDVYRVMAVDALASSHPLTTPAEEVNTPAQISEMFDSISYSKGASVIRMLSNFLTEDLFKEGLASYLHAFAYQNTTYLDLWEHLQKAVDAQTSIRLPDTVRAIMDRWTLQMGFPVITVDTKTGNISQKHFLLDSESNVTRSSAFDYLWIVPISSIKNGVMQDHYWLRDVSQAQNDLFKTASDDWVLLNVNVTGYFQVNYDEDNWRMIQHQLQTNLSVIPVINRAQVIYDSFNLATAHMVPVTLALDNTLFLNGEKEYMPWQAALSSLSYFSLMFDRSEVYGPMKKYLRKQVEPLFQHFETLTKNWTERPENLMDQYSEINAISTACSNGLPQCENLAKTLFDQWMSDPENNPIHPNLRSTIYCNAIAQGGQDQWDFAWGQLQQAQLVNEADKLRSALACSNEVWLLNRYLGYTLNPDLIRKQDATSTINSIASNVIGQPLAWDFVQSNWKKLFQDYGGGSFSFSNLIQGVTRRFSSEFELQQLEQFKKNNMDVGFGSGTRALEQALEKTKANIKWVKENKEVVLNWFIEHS
quantity name: IC50 (µM)

Consider the worked cases shown below.
CC(C)C[C@H](NC(=O)[C@@H](O)[C@H](N)Cc1ccccc1)C(=O)N[C@@H](C)C(=O)OCn1cc(F)c(=O)[nH]c1=O ... 0.17
O=C(Nc1ccc(F)cc1)N[C@H](C(=O)NO)c1ccccc1 ... 9.9

a: COC(=O)CC(=O)[C@H](N)Cc1ccccc1
b: O=C(NO)/C(=C\c1ccc(F)cc1)C(=O)NCc1ccc(F)cc1
Data request: Which value of IC50 is greater, the one for a or the one for b ? Refer to your chosen item by its label in the answer.
Data returned: a
(a: 984 µM, b: 4.2 µM)
